Quick reference: EC50 of the listed items.
biological target: GCase (Homo sapiens, UniProt P04062); construct: endogenous in cells; host or cells: HeLa cells; experiment: activation of GCase in a live cell PFB assay in HELA cells; assay type: cell-based; conditions: activation of GCase, EC50 ranges
Sequence (P04062 40-536): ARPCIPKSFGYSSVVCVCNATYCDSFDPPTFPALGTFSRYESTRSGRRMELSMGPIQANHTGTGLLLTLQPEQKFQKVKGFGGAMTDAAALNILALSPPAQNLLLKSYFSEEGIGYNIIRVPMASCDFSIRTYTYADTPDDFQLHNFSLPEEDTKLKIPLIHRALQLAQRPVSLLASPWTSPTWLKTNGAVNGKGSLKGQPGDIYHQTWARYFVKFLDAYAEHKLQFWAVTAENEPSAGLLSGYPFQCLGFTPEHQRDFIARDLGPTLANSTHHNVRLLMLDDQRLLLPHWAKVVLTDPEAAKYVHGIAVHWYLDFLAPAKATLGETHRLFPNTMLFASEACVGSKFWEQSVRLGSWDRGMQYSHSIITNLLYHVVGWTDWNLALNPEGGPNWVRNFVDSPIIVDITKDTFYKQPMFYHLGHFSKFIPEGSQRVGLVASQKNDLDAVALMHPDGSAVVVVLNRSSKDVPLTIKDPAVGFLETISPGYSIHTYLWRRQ

Some solved entries appear below for comparison.
INSERT INTO results (compound, result) VALUES
  ('FC(F)Cn1ncc2ncc(N3CCC4(CCC(Oc5ccc(C(F)(F)F)nc5)C4)CC3)nc21 (centres unmarked) [Cmpd 693]', '< 10 µM'),
  ('CCOc1nn(CC(F)F)c2nc(N3CCC4(CN(c5ccnc(C(F)(F)F)c5)C4)C3)ncc12 [Cmpd 939]', '< 10 µM'),
  ('Fc1cnc(N2CC3(CCN(c4cnc5cnn(CC(F)F)c5n4)C3)C2)cc1C(F)(F)F [Cmpd 453]', '10 to 50 µM'),
  ('CCOc1nn(CC(F)F)c2nc(N3CCC4(CC3)CC(=O)N(c3ccnc(C(F)(F)F)c3)C4)cnc12 [Cmpd 941]', '< 10 µM'),
  ('Cc1cc(N2CC3(CCN(c4ncc5c(C)nn(CC(F)F)c5n4)C3)C2)nc(C)n1 [Cmpd 641]', '10 to 50 µM');

# input So what does the record say about EC50 for Cc1nc(N2CCC3(C2)CN(c2cnc4cnn(CC(F)F)c4n2)C3)cc(C(F)(F)F)n1 [Cmpd 551] ?
# output < 10 µM

# input Return reported EC50; argument: FC(F)Cn1ncc2ncc(N3CCC4(CCN(c5ccnc(C(F)(F)F)c5)CC4)C3)nc21 [Compound 155]
# output < 10 µM

# input May I ask what EC50 has been recorded for FC(F)Cn1ncc2cnc(N3CCC4(CCN(c5cnc(C(F)(F)F)nc5)C4)C3)nc21 (centres unmarked) [Cmpd 546] ?
# output 10 to 50 µM

====

Listing: EC50 of selected compounds
molecular target: GCase (Homo sapiens, UniProt P04062); construct: endogenous in cells; host or cells: HeLa cells; experiment: activation of GCase in a live cell PFB assay in HELA cells; assay type: cell-based; details: activation of GCase, EC50 ranges

INSERT INTO results (compound, measurement_name, result) VALUES
  ('Cn1c(N2CCC3(CCN(c4ccc(C(F)(F)F)nc4)C3)CC2)nc2c(cnn2CC(F)F)c1=O [Cmpd 1054]', 'EC50', '< 10 µM'),
  ('FC(F)(F)c1cc(N2CC3(CCN(c4cnc5cnn([C@H]6CCOC6)c5n4)C3)C2)ccn1 [Cmpd 1092]', 'EC50', '> 100 µM'),
  ('COCCn1ncc2ncc(N3CCC4(CCN(c5cc(C(F)(F)F)ccn5)C4)CC3)nc21 [Cmpd 750]', 'EC50', '< 10 µM'),
  ('Cc1nc(N2CC3(CCN(c4cnc5cnn(C6COC6)c5n4)CC3)C2)cc(C(F)(F)F)n1 [Cmpd 563]', 'EC50', '> 100 µM');

# input Bench note: what EC50 did Cc1nc(N2CC3(CCN(c4cnc5cnn(CC(F)(F)F)c5n4)CC3)C2)cc(C(F)(F)F)n1 [Cmpd 567] show?
# output < 10 µM

# input Given the entry O=C1CC2(CCN(c3cnc4cnn(CC(F)F)c4n3)C2)CN1c1ccnc(C(F)(F)F)c1 (stereo not shown) [Cmpd 494] , report its measured EC50.
# output < 10 µM

# input Which EC50 is reported for this compound? Cc1nc(N2CC3(CCN(c4cncc(-c5ccnn5CC(F)(F)F)n4)C3)C2)cc(C(F)(F)F)n1 [Cmpd 1121]
# output > 100 µM

# input Field request: EC50 | item: FC(F)Cn1ncc2ncc(N3CCC4(CC3)CC(COc3ccc(C(F)(F)F)cn3)C4)nc21 [Cmpd 702]
# output 10 to 50 µM

# input Quick one: EC50 for FC(F)Cn1ncc2ncc(N3CC4(CCN(c5ncccc5C(F)(F)F)CC4)C3)nc21 [Compound 123] ?
# output 10 to 50 µM

# input State the recorded EC50 for this entry: Cc1nc(N2CCC3(CCN(c4cnc5cnn(CC(F)F)c5n4)C3)C2)cc(C(F)(F)F)n1 (stereo not shown) [Cmpd 521]
# output < 10 µM

# input For the compound FC(F)(F)c1ccc(N2CCC3(CCN(c4cncc(-c5nncs5)n4)CC3)C2)nc1 [Cmpd 234] , what EC50 is on record?
# output 10 to 50 µM

# input Which EC50 is reported for this compound? Cc1nc2cnn(CC(F)F)c2nc1N1CCC2(CN(c3cnc(C(F)(F)F)nc3)C2)C1 [Cmpd 1036]
# output > 100 µM

# input Item under review: Cc1nc(N2CCC3(C2)CN(c2ncc4c(C)nn(CC(F)F)c4n2)C3)cc(C(F)(F)F)n1 [Cmpd 577] . Reported EC50?
# output 10 to 50 µM
